Study the reported log10(IC50) values for Prostaglandin G/H synthase 2 (Homo sapiens) given below; they originate from different publications.
Log10 applied to IC50; unit prior to transform: µM.

>>> endpoint_result("Cc1nc(-c2ccc(S(C)(=O)=O)cc2)c(-c2ccc(F)cc2)o1")
0.32
>>> endpoint_result("CS(=O)(=O)c1ccc(-c2cscc2-c2ccc(F)cc2)cc1")
-1.10
>>> endpoint_result("CS(=O)(=O)c1ccc(-c2cscc2-c2ccccc2)cc1")
0.60
>>> endpoint_result("CCCNC(=O)/C=C/c1c(/C=C/c2ccc(OC)cc2)cc(OC)cc1OC")
0.83
>>> endpoint_result("NS(=O)(=O)c1ccc(-n2nc(C(=O)NCCN3CCOCC3)cc2-c2ccccc2)cc1")
-0.19

input: Form: Entry = COc1ccc2c(c1)c(CC(=O)N[C@H](CO)C(C)C)c(C)n2C(=O)c1ccc(Cl)cc1 | System = Prostaglandin G/H synthase 2 (Homo sapiens) | log10(IC50) = ____
output: -0.43

input: Form: Entry = CC[C@@H](CO)NC(=O)Cc1c(C)n(C(=O)c2ccc(Cl)cc2)c2ccc(OC)cc12 | System = Prostaglandin G/H synthase 2 (Homo sapiens) | log10(IC50) = ____
output: -0.55

input: Form: Entry = NS(=O)(=O)c1ccc(-n2nc(C(=O)N3CCOCC3)cc2-c2ccccc2)cc1 | System = Prostaglandin G/H synthase 2 (Homo sapiens) | log10(IC50) = ____
output: -0.16

input: Form: Entry = COc1ccc2c(c1)CSc1c(C(F)(F)F)nn(-c3ccc(S(N)(=O)=O)cc3)c1-2 | System = Prostaglandin G/H synthase 2 (Homo sapiens) | log10(IC50) = ____
output: -1.89

input: Form: Entry = CC(C)[C@@H]1CC[C@]2(C)[C@@H]3C(C=C4[C@@H]5CC(C)(C)C(=O)C[C@]5(C)CC[C@]42C)OC(=O)CC(O)[C@]31C (stereo not given in full) | System = Prostaglandin G/H synthase 2 (Homo sapiens) | log10(IC50) = ____
output: 2.66

input: Form: Entry = COc1ccc(-c2csc(Nc3ccc(C)cc3)n2)cc1 | System = Prostaglandin G/H synthase 2 (Homo sapiens) | log10(IC50) = ____
output: -0.09

input: Form: Entry = CC1(C)CC(c2ccc(Cl)cc2)C(Cn2c3ccccc3c3ccccc32)=NO1 (stereo not given) | System = Prostaglandin G/H synthase 2 (Homo sapiens) | log10(IC50) = ____
output: 0.59

input: Form: Entry = Cc1ccc(C2=NN(C3=NC(=O)CS3)C(c3cccc(Cl)c3)C2)cc1C (stereo not given) | System = Prostaglandin G/H synthase 2 (Homo sapiens) | log10(IC50) = ____
output: 0.72

* * *

Study the reported pIC50 values for Prostaglandin G/H synthase 2 (Homo sapiens) given below; they originate from different publications.
On this scale, pIC50 is minus log10 of a concentration expressed in M (mol/L).

# annotated cases, reported pIC50 shown
>>> endpoint_result("Cc1ccc(Cl)c(Nc2ccccc2C(=O)O)c1Cl")
6.15
>>> endpoint_result("CC(C)(C)c1ccc(-n2cc(CSc3nc4ccccc4o3)nn2)cc1")
5.41
>>> endpoint_result("Cc1cc(C)cc(-c2ccc(C(C)C(=O)O)cc2F)c1 (centres undefined)")
4.72
>>> endpoint_result("Cc1nc(-c2ccc(C)s2)c(-c2ccc(S(N)(=O)=O)c(F)c2)o1")
7.59
>>> endpoint_result("C/C(=C\\c1cc(O)cc(O)c1)c1cccc(F)c1")
5.60
>>> endpoint_result("COc1cc2c(cc1F)-c1c(c(C(F)F)nn1-c1ccc(S(N)(=O)=O)cc1)SC2")
7.49

input: Form: Entry = Cc1nc(-c2ccc(S(C)(=O)=O)cc2)c(-c2ccc(F)cc2)s1 | System = Prostaglandin G/H synthase 2 (Homo sapiens) | pIC50 = ____
output: 6.92

input: Form: Entry = CS(=O)(=O)c1ccc(-c2sc(CCCc3ccc(Br)cc3)nc2-c2ccc(F)cc2)cc1 | System = Prostaglandin G/H synthase 2 (Homo sapiens) | pIC50 = ____
output: 8.15

input: Form: Entry = N.O=C(O)c1cc(-c2ccc(CNc3ccc(Br)cc3)o2)ccc1O | System = Prostaglandin G/H synthase 2 (Homo sapiens) | pIC50 = ____
output: 4.46

input: Form: Entry = C/C(=C\c1ccc(N(C)C)cc1)c1cc(O)cc(O)c1 | System = Prostaglandin G/H synthase 2 (Homo sapiens) | pIC50 = ____
output: 5.76

input: Form: Entry = Cc1ccc(Cl)c(Nc2ccccc2C(=O)NNCc2ccccc2)c1Cl | System = Prostaglandin G/H synthase 2 (Homo sapiens) | pIC50 = ____
output: 5.20
